Residual binding of competitive phage-ELISA 1nM values, listed per item
Target: T1, recombinant human vascular endothelial growth factor (hVEGF) 121 (human, UniProt P15692 27-147)
T1 construct: mature; also called human VEGF-A121; hVEGF 121 isoform
T1 sequence (looked up): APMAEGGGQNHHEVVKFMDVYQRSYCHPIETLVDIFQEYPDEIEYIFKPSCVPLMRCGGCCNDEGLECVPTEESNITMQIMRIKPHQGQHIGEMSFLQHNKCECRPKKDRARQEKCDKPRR
Test: single point competitive phage-ELISA: residual binding of the Fab-phage to hVEGF after competition with 1 nM hVEGF
assay_readout: Residual binding of competitive phage-ELISA 1nM (%)

binder: FF0117-A11 (Fab, V domains shown, fourth generation Fab from the library based on FF0188-H5) VH: EVQLVESGGGLVQPGGSLRLSCAASGFDLFHYSIHWVRQAPGKGLEWVAYIYPSYGYTYYADSVKGRFTISADTSKNTAYLQMNSLRAEDTAVYYCARHAWYWGWALDYWGQGTLVTVSS VL: DIQMTQSPSSLSASVGDRVTITCRASQSVSSAVAWYQQKPGKAPKLLIYSASSLYSGVPSRFSGSRSGTDFTLTISSLQPEDFATYYCQQRGWYLFTFGQGTKVEIK
result_units: %
assay_value: 5
//
binder: FF0117-A5 (Fab, V domains shown, Fourth generation Fab; also called FF0117-A5 (2); Fab-A5) VH: EVQLVESGGGLVQPGGSLRLSCAASGFDLFHYSIHWVRQAPGKGLEWVAYIYPSYGYTYYADSVKGRFTISADTSKNTAYLQMNSLRAEDTAVYYCARHAWYYGWGLDYWGQGTLVTVSS VL: DIQMTQSPSSLSASVGDRVTITCRASQSVSSAVAWYQQKPGKAPKLLIYSASSLYSGVPSRFSGSRSGTDFTLTISSLQPEDFATYYCQQRGWYLFTFGQGTKVEIK
result_units: %
assay_value: 14
//
binder: FF0117-A3 (Fab, V domains shown, fourth generation Fab from the library based on FF0188-H5) VH: EVQLVESGGGLVQPGGSLRLSCAASGFDLFHYSIHWVRQAPGKGLEWVAYIYPSYGYTYYADSVKGRFTISADTSKNTAYLQMNSLRAEDTAVYYCARHAWYFGWALDYWGQGTLVTVSS VL: DIQMTQSPSSLSASVGDRVTITCRASQSVSSAVAWYQQKPGKAPKLLIYSASSLYSGVPSRFSGSRSGTDFTLTISSLQPEDFATYYCQQRGWYLFTFGQGTKVEIK
result_units: %
assay_value: 7
//
binder: FF0117-A8 (Fab, V domains shown, fourth generation Fab from the library based on FF0188-H5) VH: EVQLVESGGGLVQPGGSLRLSCAASGFDLFHYSIHWVRQAPGKGLEWVAYIYPSYGYTYYADSVKGRFTISADTSKNTAYLQMNSLRAEDTAVYYCARHAWYSGWALDYWGQGTLVTVSS VL: DIQMTQSPSSLSASVGDRVTITCRASQSVSSAVAWYQQKPGKAPKLLIYSASSLYSGVPSRFSGSRSGTDFTLTISSLQPEDFATYYCQQRGWYLFTFGQGTKVEIK
result_units: %
assay_value: 17
